Attribution: paper PMC2923816

TARGET: UniProtKB Q8TF76
ASSAY TEXT: haspin kinase TR-FRET assay
Type: biochemical
CONDITIONS: read-out: haspin IC50
MEASURED METRIC: IC50

>  <STRUCTURE AS SMILES>
COc1ccc2nc3ccc(Cl)cc3c(SCCCN)c2c1

>  <RESULT>
< 60 nM

$$$$

* * *

TARGET: human haspin kinase (Homo sapiens)
Sequence (Q8TF76 1-798): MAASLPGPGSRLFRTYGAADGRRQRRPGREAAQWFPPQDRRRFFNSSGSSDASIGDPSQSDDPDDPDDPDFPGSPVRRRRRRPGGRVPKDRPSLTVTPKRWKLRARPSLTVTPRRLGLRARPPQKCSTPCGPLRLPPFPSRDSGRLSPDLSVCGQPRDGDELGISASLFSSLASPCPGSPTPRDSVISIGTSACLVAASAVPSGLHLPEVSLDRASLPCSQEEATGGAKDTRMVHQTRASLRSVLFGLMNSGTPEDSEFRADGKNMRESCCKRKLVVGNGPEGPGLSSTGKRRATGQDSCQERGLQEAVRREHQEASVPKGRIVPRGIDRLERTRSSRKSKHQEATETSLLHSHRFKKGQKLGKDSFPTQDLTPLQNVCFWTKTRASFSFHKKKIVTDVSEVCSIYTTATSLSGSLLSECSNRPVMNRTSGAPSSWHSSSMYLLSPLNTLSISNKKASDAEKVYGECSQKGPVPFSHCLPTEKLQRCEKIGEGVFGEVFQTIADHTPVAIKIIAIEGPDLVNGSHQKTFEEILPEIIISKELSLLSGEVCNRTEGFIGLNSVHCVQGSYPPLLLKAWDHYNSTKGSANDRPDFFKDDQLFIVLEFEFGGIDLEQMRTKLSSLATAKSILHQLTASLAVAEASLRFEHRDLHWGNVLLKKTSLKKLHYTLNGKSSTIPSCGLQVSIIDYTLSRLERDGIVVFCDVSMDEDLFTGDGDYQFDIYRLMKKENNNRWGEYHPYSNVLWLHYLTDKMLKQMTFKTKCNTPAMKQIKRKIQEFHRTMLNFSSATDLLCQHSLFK
ASSAY TEXT: haspin kinase TR-FRET assay
Assay type: biochemical
CONDITIONS: read-out: IC50 haspin; TR-FRET assay
MEASURED METRIC: IC50 (nM)

>  <COMPOUND>
COc1ccc2nc3ccc(OC)cc3c(SCCCN3C(=O)c4ccccc4C3=O)c2c1 [Compound 41]

>  <READOUT NUMBER>
2100

$$$$
>  <COMPOUND>
COc1ccc2nc3ccc(Cl)cc3c(SCCCN)c2c1 [Compound 33]

>  <READOUT NUMBER>
55

$$$$
